Would you kindly list EC50 (nM), OVCAR 5 cells (cAMP) for each of these binders?
Target: T1, RXFP1 receptor (endogenous, on OVCAR5 cells) (UniProt Q9HBX9 1-757, limits assumed)
T1 sequence (looked up): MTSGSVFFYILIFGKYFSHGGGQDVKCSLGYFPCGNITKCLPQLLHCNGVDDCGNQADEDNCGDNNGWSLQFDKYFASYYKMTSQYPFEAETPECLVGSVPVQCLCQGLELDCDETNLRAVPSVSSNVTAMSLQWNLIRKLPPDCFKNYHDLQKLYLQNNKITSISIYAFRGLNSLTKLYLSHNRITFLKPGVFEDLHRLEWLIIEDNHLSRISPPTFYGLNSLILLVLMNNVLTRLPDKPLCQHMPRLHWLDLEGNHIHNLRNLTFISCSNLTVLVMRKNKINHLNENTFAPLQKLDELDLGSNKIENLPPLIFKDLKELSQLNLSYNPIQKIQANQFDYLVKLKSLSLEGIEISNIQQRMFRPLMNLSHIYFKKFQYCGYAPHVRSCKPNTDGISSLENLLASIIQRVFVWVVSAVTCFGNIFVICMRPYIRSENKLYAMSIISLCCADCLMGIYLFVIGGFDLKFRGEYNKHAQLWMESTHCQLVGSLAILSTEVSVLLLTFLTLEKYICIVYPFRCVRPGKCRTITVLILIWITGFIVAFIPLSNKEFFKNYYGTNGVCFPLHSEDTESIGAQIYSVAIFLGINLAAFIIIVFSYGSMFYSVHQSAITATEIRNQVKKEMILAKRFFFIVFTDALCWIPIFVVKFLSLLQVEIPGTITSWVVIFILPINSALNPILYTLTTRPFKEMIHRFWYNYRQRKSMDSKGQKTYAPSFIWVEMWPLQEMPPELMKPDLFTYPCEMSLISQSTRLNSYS
Assay: cell-based or functional assay
Starred links: 1 amine or outer side, 2 acyl side, 3 side chain; linkers in the order of their positions; H or OH if unused. Non-standard residues stand in square brackets, D forms with d. Groups on a side chain read outwards from the residue. *: point of attachment. TTDS = 4-[3-[2-[2-(3-aminopropoxy)ethoxy]ethoxy]propylamino]-4-oxo-butanoyl; γGlu = O=C(O)[C@H](CCC(=O)[*:2])N[*:1]; Stearoyl = CCCCCCCCCCCCCCCCCC(=O)*; Palmitoyl = CCCCCCCCCCCCCCCC(=O)*; αMeK = C[C@](N)(CCCCN)C(=O)O; Aib = CC(C)(N)C(=O)O
Answers are plain numbers, in nM.

// worked examples, EC50 (nM), OVCAR 5 cells (cAMP) included
Ac-LEGREKVRAK(Ac)I[Aib][Aib]EGK([TTDS-TTDS-γGlu-γGlu-γGlu-γGlu-Stearoyl])STWS[Aib]RKK(Ac)-NH2 [peptide of SEQ ID NO: 54] = 0.16
Ac-LEGREKVRAK(Ac)I[Aib][Aib]EGK([TTDS-TTDS-TTDS-γGlu-γGlu-γGlu-Palmitoyl])STWS[Aib]RAK-NH2 [peptide of SEQ ID NO: 71] = 0.36
Ac-LEGREKVRAK(Ac)IA[Aib]EGK([TTDS-TTDS-TTDS-γGlu-γGlu-γGlu-Palmitoyl])STFS[αMeK]RAK(Ac)-NH2 [peptide of SEQ ID NO: 90] = 0.14

Kindly consider the entry below.
Ask: EC50 (nM), OVCAR 5 cells (cAMP) for Ac-LEGREFVRAK(Ac)I[Aib][Aib]EGK([TTDS-TTDS-TTDS-γGlu-γGlu-γGlu-Palmitoyl])STWS[Aib]RRK(Ac)-NH2 [peptide of SEQ ID NO: 39] ?
Reply: 8.7

Sourced from patent US20190233494A1
